- SYSTEM NAME: T1, human Trop-1 (EpCAM) (human, UniProt P16422 24-265, limits assumed)
- T1 sequence (looked up): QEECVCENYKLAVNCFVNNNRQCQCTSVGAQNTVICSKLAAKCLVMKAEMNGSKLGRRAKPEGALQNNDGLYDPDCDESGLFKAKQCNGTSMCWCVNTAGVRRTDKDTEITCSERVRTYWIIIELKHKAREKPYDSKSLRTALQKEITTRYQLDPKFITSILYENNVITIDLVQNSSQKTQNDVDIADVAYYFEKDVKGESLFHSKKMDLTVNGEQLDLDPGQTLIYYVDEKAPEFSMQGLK
- EXPERIMENTAL PROTOCOL: ELISA, similar to Table 24
MEASURED ENDPOINT: binding result

* 72F12 (antibody, V domains shown, Rabbit-derived clone; LEM construct: VH + rabbit IgG CH1 + human IgG1 CH2-CH3) VH: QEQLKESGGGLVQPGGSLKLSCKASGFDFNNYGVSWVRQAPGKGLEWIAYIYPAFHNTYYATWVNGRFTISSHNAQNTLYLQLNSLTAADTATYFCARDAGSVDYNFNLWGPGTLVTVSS VL: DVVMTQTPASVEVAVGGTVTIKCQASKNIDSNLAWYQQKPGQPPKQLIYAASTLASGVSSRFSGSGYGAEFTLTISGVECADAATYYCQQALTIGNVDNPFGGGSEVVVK | no binding
* 65D5 (antibody, V domains shown, Rabbit-derived clone; LEM construct: VH + rabbit IgG CH1 + human IgG1 CH2-CH3) VH: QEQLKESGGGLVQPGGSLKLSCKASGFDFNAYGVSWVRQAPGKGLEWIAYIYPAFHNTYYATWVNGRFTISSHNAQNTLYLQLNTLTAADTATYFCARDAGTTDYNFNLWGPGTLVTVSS VL: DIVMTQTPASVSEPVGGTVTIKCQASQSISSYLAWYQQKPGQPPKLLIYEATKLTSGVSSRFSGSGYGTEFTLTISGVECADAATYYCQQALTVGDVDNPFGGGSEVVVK | no binding
* 5D4-1 (antibody, V domains shown) VH: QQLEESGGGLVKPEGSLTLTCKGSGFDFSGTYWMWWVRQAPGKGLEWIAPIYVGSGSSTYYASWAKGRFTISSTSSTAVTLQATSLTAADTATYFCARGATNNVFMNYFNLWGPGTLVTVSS VL: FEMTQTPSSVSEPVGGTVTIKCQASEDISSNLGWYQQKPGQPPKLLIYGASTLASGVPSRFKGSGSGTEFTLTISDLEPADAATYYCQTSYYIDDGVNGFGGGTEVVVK | no binding
